The origin of these recorded values is patent US20250136606A1.

Each entry below carries its recorded pEC50.
- test-target: TRPML3 (Homo sapiens, UniProt Q8TDD5)
- Construct: expressed in transfected cells
- Sequence (Q8TDD5 1-553): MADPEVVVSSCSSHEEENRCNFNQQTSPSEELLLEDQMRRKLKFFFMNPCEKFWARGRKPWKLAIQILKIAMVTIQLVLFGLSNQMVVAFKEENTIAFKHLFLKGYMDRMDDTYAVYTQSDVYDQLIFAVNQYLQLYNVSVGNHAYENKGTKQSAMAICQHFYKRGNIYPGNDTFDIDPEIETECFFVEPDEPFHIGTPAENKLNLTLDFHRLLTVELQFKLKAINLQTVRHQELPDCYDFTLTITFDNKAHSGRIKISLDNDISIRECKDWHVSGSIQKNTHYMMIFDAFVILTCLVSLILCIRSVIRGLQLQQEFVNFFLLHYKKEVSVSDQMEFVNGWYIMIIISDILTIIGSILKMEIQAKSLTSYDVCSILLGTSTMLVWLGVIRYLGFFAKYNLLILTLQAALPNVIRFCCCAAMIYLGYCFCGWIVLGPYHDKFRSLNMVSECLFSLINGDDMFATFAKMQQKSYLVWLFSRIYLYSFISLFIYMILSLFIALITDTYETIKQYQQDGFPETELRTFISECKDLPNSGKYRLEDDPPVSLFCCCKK
- protocol-description: Fluorescent TRPML3 assay (performed as for TRPML1, substituting the TRPML3 subtype)
- Assay type: cell-based
- study-conditions: fluorescent calcium assay
pEC50: −log10 of the molar value.

Name the recorded pEC50 of the item C[C@H]1CN(C(=O)OC(C)(C)C)CCN1c1ncnc2c1c(N1CCCC1)cn2C1CCCC(F)(F)C1 (stereo partly shown) [Compound 401] in your answer.
> 7.00

Return reported pEC50. Input molecule: C[C@@H]1CN(c2cn(-c3cc(C#N)ccn3)c3ncnc(N4CCN(C(=O)OC(C)(C)C)C[C@@H]4C)c23)CCO1 [Compound 417]
> 7.00

Item C[C@H]1CN(C(=O)OC(C)(C)C)CCN1c1ncnc2c1c(C1CC1)cn2-c1cccc(OC(F)(F)F)c1 [Compound 196] : provide pEC50
> 7.00

Please supply the value of reported pEC50 for the item C[C@@H]1CN(c2ncnc3c2c(N2CCCC2=O)cn3-c2cc(F)c(F)c(F)c2)CCN1C(=O)OC(C)(C)C [Compound 313]
5.70 to 6.30

Using the record for C[C@H]1CN(c2ncnc3c2c(N2CCCC2)cn3-c2cccc(Cl)c2)CCN1C(=O)OC(C)(C)C [Compound 194] , state its measured pEC50.
6.30 to 7.00

# return recorded pEC50 for input C[C@@H]1CN(c2ncnc3c2c(-c2ccccn2)cn3-c2cccc(Cl)c2)[C@@H](C)CN1C(=O)OC(C)(C)C [Compound 117]
> 7.00

Give pEC50 for Cc1nccnc1-c1cn(-c2cc(F)cc(F)c2)c2ncnc(N3CCN(C(=O)OC(C)(C)CF)C[C@@H]3C)c12 [Compound 248]
5.70 to 6.30
